Numbers sourced from PubChem BioAssay AID1159580.

Experiment: chemical genetic growth profiling, strain panel (AID 1159580);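 also: tested at 20 µM; growth read once vehicle control cultures reached saturation at 30 °C; 1 = growth at the plate median or of vehicle wells; lower values mean less growth of the strain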
Conditions: S. cerevisiae deletion strains, growth OD, locus YNL233W, strain BNI4, hits give low values
Hit rate of the full screen: of about 5,500 compounds, about 2,000 (36%) were called active. Not shown: some 18% with an inconclusive outcome. Some of the results follow.
MEASURED QUANTITY: normalized growth
Answers are plain numbers.

Below: 4 molecules and their reported normalized growth.
Any idea what its normalized growth is? The molecule is COC(=O)C[C@H]1C2(C)CC34OC5(C)O[C@@]6([C@H](OC)C(OC(=O)C(C)C)[C@]7(C)C(/C(=C(/OC)C(C)C)C(=O)O[C@H]7c7ccoc7)[C@@]6(O5)[C@H](OC)[C@@]3(OC)C2OC(C)=O)[C@]14C (stereo not given in full)
1.04

Any idea what its normalized growth is? The molecule is CCN(CC)C(=O)N1CCN(C)CC1
1.01

Any idea what its normalized growth is? The molecule is Cc1[nH]c2ccccc2c1CN(C)C
1.05

Any idea what its normalized growth is? The molecule is C[C@H]1COc2c(N3CCN(C)CC3)c(F)cc3c(=O)c(C(=O)O)cn1c23
1.01

Others:
Any idea what its normalized growth is? The molecule is CC(=O)Oc1cc(OC(C)=O)c2c(c1)O[C@H](c1ccc(OC(C)=O)c(OC(C)=O)c1)[C@@H](OC(C)=O)C2
0.983
